Test: NCI Yeast Anticancer Drug Screen. Data for the cln2 rad14 strain (AID 165)
Settings: S. cerevisiae cln2 rad14 strain, at 50.0 µM
Compounds without any hit were thinned out: in the full panel of roughly 79,000, 15% have a hit. Calls of active or inactive are those of the source. No stated cut-off is given here; in the data, active means growth inhibition above about 70%; inactive means the rest.
Classes used: Yes for active, No for inactive

{"compound": "CCC[C@H]1[C@H](CCC)[C@@]2(OC(=O)C3=C2CCC=C3)[C@]12OC(=O)C1=C2CCC=C1", "class_label": "Yes"}
{"compound": "CCCCNC(=O)OCc1c(COC(=O)NCCCC)c(-c2ccc(Cl)c(Cl)c2)n2c1CCC2", "class_label": "No"}
{"compound": "CSC(=S)n1nc(-c2ccccc2)c(N=Nc2ccccc2[N+](=O)[O-])c1C", "class_label": "Yes"}
{"compound": "CC(CN1CCOCC1)(CN1CCOCC1)[N+](=O)[O-]", "class_label": "Yes"}
{"compound": "CCCCCCCCCCCC[N+]1(C)CCCC1c1cccnc1 (stereo not drawn)", "class_label": "Yes"}
{"compound": "C/C=C/C=C/C(=O)Nc1ccc([N+](=O)[O-])cc1", "class_label": "No"}
{"compound": "O=C1NC(Cc2ccccc2)C(=O)O1 (stereo not drawn)", "class_label": "No"}
{"compound": "COC(=O)[C@@H](O)[C@]1(C(=O)OC)C2O[C@@H](OC)[C@@H]1CCCCCC[C@H]2O", "class_label": "No"}
{"compound": "ClCc1ccccc1Cc1ccccc1", "class_label": "Yes"}
{"compound": "CCCCC/C(=C/C=C/c1ccc(Cl)cc1)CN(C)C", "class_label": "Yes"}
{"compound": "COc1cc2c(c(C3C(=O)N(C)c4ccc(Br)cc43)c1OC)OCO2 (stereo not drawn)", "class_label": "No"}
{"compound": "O=C1OCCCN1/N=C/c1ccc([N+](=O)[O-])o1", "class_label": "No"}
{"compound": "CCCCCCCCNc1ccc(Cl)cc1", "class_label": "Yes"}
{"compound": "NCCCN1c2ccccc2Sc2ccc(Cl)cc21", "class_label": "No"}
{"compound": "Clc1ccc(C2=CCCc3ccccc32)cc1", "class_label": "Yes"}
{"compound": "CCCCCN(CCCCC)CC(=O)OCC1(C)CCCC2(C)C3CCC(C(C)C)=CC3=CCC12 (stereo not drawn)", "class_label": "No"}
{"compound": "OC(C/C(CNNc1ccccc1)=N/Nc1ccccc1)(C(F)(F)F)C(F)(F)F", "class_label": "No"}
{"compound": "CC(C)=NOc1ccc([N+](=O)[O-])cc1[N+](=O)[O-]", "class_label": "No"}
